Molecular target: Peroxisome proliferator-activated receptor alpha (Homo sapiens, UniProt Q07869)
Sequence (Q07869 whole entry): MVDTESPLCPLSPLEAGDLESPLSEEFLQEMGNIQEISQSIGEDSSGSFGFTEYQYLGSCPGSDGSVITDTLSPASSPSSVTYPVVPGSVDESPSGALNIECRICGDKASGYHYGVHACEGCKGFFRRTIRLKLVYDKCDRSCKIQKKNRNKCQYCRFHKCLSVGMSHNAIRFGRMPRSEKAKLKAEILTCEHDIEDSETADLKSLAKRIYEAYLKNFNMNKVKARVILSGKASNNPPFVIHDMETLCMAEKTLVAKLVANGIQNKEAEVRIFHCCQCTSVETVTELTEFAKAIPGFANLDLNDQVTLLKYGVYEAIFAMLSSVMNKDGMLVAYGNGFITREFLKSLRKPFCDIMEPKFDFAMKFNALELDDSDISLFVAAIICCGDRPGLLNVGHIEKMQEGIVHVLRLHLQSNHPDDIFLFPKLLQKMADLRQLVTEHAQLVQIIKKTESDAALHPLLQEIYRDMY
Assay: Displacement of [3H]GW2331 from Homo sapiens (human) PPARalpha receptor by scintillation proximity assay
Collected IC50 values appear next to each entry.

Example cases with answers are listed next.
CCCCCCCCCC(=O)O = > 30 µM
CCCCCCCCCCCCCCCC(=O)O = 1.5 µM
CCCCCCCCCCCC(=O)O [DODECANOATE] = > 30 µM
CCCCCCCCCCCCCCCCCCCC(=O)O = > 30 µM
CCCCCCCCCCCCCCCCCCCCCC(=O)O = > 30 µM

q: Please report the recorded IC50 for `CCCCCCCC/C=C\CCCCCCCCCCCC(=O)O` .
a: > 30 µM

q: Please report the recorded IC50 for `CCCCCCCCCCCCCC(=O)O` .
a: 5.4 µM

q: Please report the recorded IC50 for `CCCCCCCCCCCCCCCCCC(=O)O` .
a: 1.1 µM

###

Biological target: Peroxisome proliferator-activated receptor delta (Homo sapiens)
Assay: Displacement of [3H]GW2433 from Homo sapiens (human) PPARdelta receptor by scintillation proximity assay
OBSERVABLE: pIC50
By convention, pIC50 is the negative base-10 log of a molar concentration.

CCCCC/C=C\C/C=C\C/C=C\CCCCC(=O)O = 6.12
CC/C=C\C/C=C\C/C=C\CCCCCCCC(=O)O = 4.80
CCCCCCCC/C=C\CCCCCCCC(=O)O = 5.28
CCCCCC/C=C\CCCCCCCC(=O)O = 5.02

The record that follows has no pIC50 shown yet.
q: Requested read-out pIC50, target or system Peroxisome proliferator-activated receptor delta (Homo sapiens), entry `CC/C=C\C/C=C\C/C=C\C/C=C\C/C=C\CCCC(=O)O`
a: 5.40

###

Target: Peroxisome proliferator-activated receptor gamma (Homo sapiens, UniProt P37231)
Sequence (P37231 whole entry): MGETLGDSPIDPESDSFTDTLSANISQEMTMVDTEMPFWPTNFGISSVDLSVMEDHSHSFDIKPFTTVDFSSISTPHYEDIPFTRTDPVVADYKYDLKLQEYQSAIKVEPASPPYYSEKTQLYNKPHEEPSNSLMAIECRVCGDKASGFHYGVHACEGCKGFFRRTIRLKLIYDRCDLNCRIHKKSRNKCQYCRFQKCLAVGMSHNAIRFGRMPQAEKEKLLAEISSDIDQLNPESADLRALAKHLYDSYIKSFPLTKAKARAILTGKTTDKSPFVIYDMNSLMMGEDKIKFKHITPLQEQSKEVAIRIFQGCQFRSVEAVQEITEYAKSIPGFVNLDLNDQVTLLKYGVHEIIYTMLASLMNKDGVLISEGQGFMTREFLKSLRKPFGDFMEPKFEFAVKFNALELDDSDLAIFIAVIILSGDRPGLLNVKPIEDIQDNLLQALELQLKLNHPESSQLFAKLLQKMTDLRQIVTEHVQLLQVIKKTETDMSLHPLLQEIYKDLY
Assay: Displacement of [3H]BRL49653 from Homo sapiens (human) PPARgamma receptor by scintillation proximity assay
Collected pIC50 values appear next to each entry.
By convention, pIC50 is the negative base-10 log of a molar concentration.

q: Please report the recorded pIC50 for `CCCCC/C=C\C/C=C\C/C=C\CCCCCCC(=O)O` .
a: 5.62

###

Collected IC50 values appear next to each entry.
Target: Peroxisome proliferator-activated receptor delta (Homo sapiens, UniProt Q03181)
Sequence (Q03181 whole entry): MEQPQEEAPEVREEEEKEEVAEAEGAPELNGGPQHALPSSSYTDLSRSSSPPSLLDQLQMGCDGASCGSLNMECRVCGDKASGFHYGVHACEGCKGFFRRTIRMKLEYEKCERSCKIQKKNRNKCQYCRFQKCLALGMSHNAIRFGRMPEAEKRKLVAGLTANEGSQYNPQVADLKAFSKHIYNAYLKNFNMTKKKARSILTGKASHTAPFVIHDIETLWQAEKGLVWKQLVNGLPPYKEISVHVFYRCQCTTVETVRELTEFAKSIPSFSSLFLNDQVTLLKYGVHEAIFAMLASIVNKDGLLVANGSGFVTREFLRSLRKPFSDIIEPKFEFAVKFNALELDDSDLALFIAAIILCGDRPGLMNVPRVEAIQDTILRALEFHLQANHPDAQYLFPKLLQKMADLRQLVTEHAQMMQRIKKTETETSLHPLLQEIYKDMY
Assay: Displacement of [3H]GW2433 from Homo sapiens (human) PPARdelta receptor by scintillation proximity assay
// return numeric value only (unit: µM, not printed)

Example cases with answers are listed next.
CCCCC/C=C\C/C=C\C/C=C\C/C=C\CCCC(=O)O [ARACHIDONIC ACID] = 3.1
CCCCC/C=C\C/C=C\CCCCCCCC(=O)O [LINOLEIC ACID] = 10

The record that follows has no IC50 shown yet.
q: Please report the recorded IC50 for CCCCC/C=C\C/C=C\C/C=C\CCCCCCC(=O)O [DIHOMO-GAMMA-LINOLENIC ACID] .
a: 4.3
